FYI, the data here is from ChEMBL document CHEMBL3596171.

# System: Plasmodium falciparum
# test_details: Antiplasmodial activity against chloroquine-resistant Plasmodium falciparum Dd2
# Assay type: functional, organism-based
reported_endpoint: IC50
Include the unit right after the number.

What does the data say about its IC50? Entry: C(CCCNCCCNCC1CCCCCC1)CCCNCCCNCC1CCCCCC1 120 nM

----------
This section presents molecules with their documented GI50 values.
# System: HepG2
# test_details: Cytotoxicity against human HepG2 cells assessed as inhibition of cell growth after 48 hrs by LDH assay
# Format: cell-based
# particulars: hepg2, 48 h

Answered examples (5):
1. S=C(NCCCNCCCCCNCCCNC(=S)NCCC(c1ccccc1)c1ccccc1)NCCC(c1ccccc1)c1ccccc1 = 50.6 µM
2. O=C(NCCCNCCCCCNCCCNC(=O)NC(c1ccccc1)c1ccccc1)NC(c1ccccc1)c1ccccc1 = 240 µM
3. O=C(NCCCNCCCCCNCCCNC(=O)NCc1ccccc1)NCc1ccccc1 = 1950 µM
4. O=C(NCCCNCCCCCNCCCNC(=O)NCC(c1ccccc1)c1ccccc1)NCC(c1ccccc1)c1ccccc1 = 94.5 µM
5. S=C(NCCCNCCCCCNCCCNC(=S)NC(c1ccccc1)c1ccccc1)NC(c1ccccc1)c1ccccc1 = 44.8 µM

// GI50 lookup, key: S=C(NCCCNCCCCCNCCCNC(=S)NCC(c1ccccc1)c1ccccc1)NCC(c1ccccc1)c1ccccc1 52.2 µM

Now the same for O=C(NCCCNCCCCCNCCCNC(=O)NCCC(c1ccccc1)c1ccccc1)NCCC(c1ccccc1)c1ccccc1 153 µM
